# System under test: UniProt:P28482
# Procedure summary: Active Human ERK2 (hERK2) Activity Assay (IMAP-FP)
# Format: biochemical
# Conditions: phosphorylated active hERK2, 30 μM ATP; average; read-out: ERK 2 Human average IC50
Below is a list of entries, each paired with its recorded IC50 value.
Outcome measure: IC50 (nM)

molecule=Cc1cc(-c2n[nH]c3cc(NC(=O)NC[C@H]4COCCO4)ncc23)ccn1 result=2.62
molecule=Cc1cc(-c2n[nH]c3cc(NC(=O)NCc4cnc(C)s4)ncc23)ccn1 result=1.14
molecule="CNC1(CNC(=O)Nc2cc3[nH]nc(-c4ccnc(C)c4)c3cn2)CCOC1 (centres unmarked)" result=53.7
molecule=C[C@@H](NC(=O)Nc1cc2[nH]nc(C(=O)NCC3(N(C)C)CCC3)c2cn1)c1ccccc1 result=211
molecule=COCCNC(=O)Nc1ncc2c(-c3ccnc(C4CC4)c3)n[nH]c2c1F result=3.12
molecule=Cc1ccc2nc(CNC(=O)Nc3cc4[nH]nc(-c5ccnc(C)c5)c4cn3)cn2c1 result=22.2
molecule=COC[C@@H](NC(=O)Nc1cc2[nH]nc(-c3ccc4nn(C)cc4c3)c2cn1)c1ccccc1 result=0.297
molecule=Cc1cc(-c2n[nH]c3cc(NC(=O)NCCc4ccccn4)ncc23)ccn1 result=2.34

====

# System under test: Active Human ERK2 (hERK2) (Homo sapiens (Human))
# Procedure summary: Active Human ERK2 (hERK2) Activity Assay (IMAP-FP)
# Format: biochemical
# Conditions: phosphorylated active hERK2, 30 μM ATP; average; read-out: ERK 2 Human average IC50
pIC50: −log10 of the molar value.
Outcome measure: pIC50

molecule="Cc1cc(-c2n[nH]c3cc(NC(=O)NC(C)c4nnco4)ncc23)ccn1 (stereo not shown)" system_under_test="Active Human ERK2 (hERK2) (Homo sapiens (Human))" result=6.63
molecule=COC(=O)[C@@H](C)NC(=O)Nc1cc2[nH]nc(-c3ccnc(C)c3)c2cn1 system_under_test="Active Human ERK2 (hERK2) (Homo sapiens (Human))" result=7.51
molecule="CC(C)CC(O)CNC(=O)c1n[nH]c2cc(NC(=O)N[C@H](C)c3ccccc3)ncc12 (stereo partly shown)" system_under_test="Active Human ERK2 (hERK2) (Homo sapiens (Human))" result=7.83
molecule=COC[C@@H](NC(=O)Nc1cc2[nH]nc(-c3ccnc(C)c3)c2cn1)c1cc(F)ccn1 system_under_test="Active Human ERK2 (hERK2) (Homo sapiens (Human))" result=8.13

====

# System under test: Active Human ERK2 (hERK2) (Homo sapiens (Human), UniProt P28482)
# Sequence (P28482 whole entry): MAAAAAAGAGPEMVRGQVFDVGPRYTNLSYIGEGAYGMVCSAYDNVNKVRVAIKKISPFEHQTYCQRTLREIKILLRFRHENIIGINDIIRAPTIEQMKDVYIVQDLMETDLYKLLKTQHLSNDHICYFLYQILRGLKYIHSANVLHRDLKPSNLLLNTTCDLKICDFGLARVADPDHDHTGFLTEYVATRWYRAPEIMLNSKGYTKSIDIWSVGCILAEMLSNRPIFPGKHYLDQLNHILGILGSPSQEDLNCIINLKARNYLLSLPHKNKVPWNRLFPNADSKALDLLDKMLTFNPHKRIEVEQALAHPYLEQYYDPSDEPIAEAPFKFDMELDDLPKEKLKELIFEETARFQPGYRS
# Procedure summary: Active Human ERK2 (hERK2) Activity Assay (IMAP-FP)
# Format: biochemical
# Conditions: phosphorylated active hERK2, 30 μM ATP; average; read-out: ERK 2 Human average IC50
Records here are stratified by IC50; strata: class A (below 6 nM), class B (6 nM to below 50 nM), class C (50 nM or more)

compound="Cc1cc(-c2n[nH]c3c(F)c(NC(=O)NC(C)c4ccccn4)ncc23)ccn1 (centres unmarked)" system_under_test="Active Human ERK2 (hERK2) (Homo sapiens (Human), UniProt P28482)" label="class A"
compound="CC(CN(C)C)NC(=O)Nc1cc2[nH]nc(-c3ccc(F)cc3)c2cn1 (centres unmarked)" system_under_test="Active Human ERK2 (hERK2) (Homo sapiens (Human), UniProt P28482)" label="class C"
compound=Cc1cc(-c2n[nH]c3cc(NC(=O)NCC4(c5ccc(OC(F)(F)F)cc5)CC4)ncc23)ccn1 system_under_test="Active Human ERK2 (hERK2) (Homo sapiens (Human), UniProt P28482)" label="class C"
compound=Cc1cc(-c2n[nH]c3cc(NC(=O)N[C@H]4CCCOc5ccccc54)ncc23)ccn1 system_under_test="Active Human ERK2 (hERK2) (Homo sapiens (Human), UniProt P28482)" label="class B"
compound="Cc1cc(-c2n[nH]c3cc(NC(=O)NC(CO)c4cccnc4)ncc23)ccn1 (centres unmarked)" system_under_test="Active Human ERK2 (hERK2) (Homo sapiens (Human), UniProt P28482)" label="class A"
compound=C[C@@H](NC(=O)Nc1cc2[nH]nc(C(F)F)c2cn1)c1ccccc1 system_under_test="Active Human ERK2 (hERK2) (Homo sapiens (Human), UniProt P28482)" label="class B"
compound="Cc1cc(-c2n[nH]c3cc(NC(=O)NC4c5ccccc5OC(C)(C)C4O)ncc23)ccn1 (centres unmarked)" system_under_test="Active Human ERK2 (hERK2) (Homo sapiens (Human), UniProt P28482)" label="class C"
compound=CCn1cc(CNC(=O)Nc2cc3[nH]nc(-c4ccnc(C)c4)c3cn2)cn1 system_under_test="Active Human ERK2 (hERK2) (Homo sapiens (Human), UniProt P28482)" label="class B"
compound=CSC[C@@H](NC(=O)Nc1cc2[nH]nc(-c3ccnc(C)c3)c2cn1)c1ccccc1 system_under_test="Active Human ERK2 (hERK2) (Homo sapiens (Human), UniProt P28482)" label="class A"
compound=COC(=O)[C@@H](NC(=O)Nc1cc2[nH]nc(-c3ccnc(C)c3)c2cn1)C(C)C system_under_test="Active Human ERK2 (hERK2) (Homo sapiens (Human), UniProt P28482)" label="class C"
compound=C[C@@H](NC(=O)Nc1cc2[nH]nc(C(=O)N3CC(=O)N(C)C3)c2cn1)c1ccccc1 system_under_test="Active Human ERK2 (hERK2) (Homo sapiens (Human), UniProt P28482)" label="class C"
compound=C[C@@H](NC(=O)Nc1cc2[nH]nc(C(=O)NCC(F)(F)CN3CCOCC3)c2cn1)c1ccccc1 system_under_test="Active Human ERK2 (hERK2) (Homo sapiens (Human), UniProt P28482)" label="class B"
compound=Cc1cc(-c2n[nH]c3cc(NC(=O)NCC4(c5ccc(F)cc5)CC4)ncc23)ccn1 system_under_test="Active Human ERK2 (hERK2) (Homo sapiens (Human), UniProt P28482)" label="class A"
compound=C[C@@H](NC(=O)Nc1cc2[nH]nc(C(=O)N(C)C)c2cn1)c1ccccc1 system_under_test="Active Human ERK2 (hERK2) (Homo sapiens (Human), UniProt P28482)" label="class C"
compound=Cc1cc(-c2n[nH]c3cc(NC(=O)NCc4cnoc4)ncc23)ccn1 system_under_test="Active Human ERK2 (hERK2) (Homo sapiens (Human), UniProt P28482)" label="class A"

====

# System under test: Active Human ERK2 (hERK2) (Homo sapiens (Human))
# Procedure summary: Active Human ERK2 (hERK2) Activity Assay (IMAP-FP)
# Format: biochemical
# Conditions: phosphorylated active hERK2, 30 μM ATP; average; read-out: ERK 2 Human average IC50
# Description: Assays Active Human ERK2 (hERK2) Activity Assay: Activated ERK2 activity was determined in an IMAP-FP assay (Molecular Devices). […] The final reaction in each well of 25 μL consists of 0.5 nM hERK2, 900 nM unlabeled peptide, 80 nM labeled-peptide, and 30 μM ATP. […] Plates were read on EnVision reader after 60 minutes binding equilibration using Fluorescence Polarization protocol (Perkin Elmer).
Counter-ions that a name gives are not always drawn.
Outcome measure: IC50

molecule="Cc1cc(-c2n[nH]c3cc(NC(=O)N[C@H]4CN(C)C[C@@H]4F)ncc23)ccn1 [Example 328]" outcome_measure=IC50 result="1.57 nM"
molecule="CCOC[C@@H](NC(=O)Nc1cc2[nH]nc(C(F)F)c2cn1)c1ccccc1 [Example 692]" outcome_measure=IC50 result="12 nM"
molecule="Cc1cc(-c2n[nH]c3cc(NC(=O)NCC(O)C(F)F)ncc23)ccn1 (centres unmarked) [Example 189]" outcome_measure=IC50 result="10.3 nM"
molecule="Cc1cc(-c2n[nH]c3cc(NC(=O)Nc4ccccc4)ncc23)ccn1 [Example 61]" outcome_measure=IC50 result="127 nM"
molecule="O=C(NCc1ccc(F)cc1)Nc1cc2[nH]nc(-c3ccc(OC(F)(F)F)cc3)c2cn1 [Example 675]" outcome_measure=IC50 result="89.2 nM"
molecule="C[C@@H](NC(=O)Nc1cc2[nH]nc(-c3ccc(=O)[nH]c3)c2cn1)c1ccc(F)cc1 [Example 282]" outcome_measure=IC50 result="0.304 nM"
molecule="Cc1cc(-c2n[nH]c3cc(NC(=O)NCC4COC4)ncc23)ccn1 [Example 588]" outcome_measure=IC50 result="30.9 nM"
molecule="Cc1cc(-c2n[nH]c3cc(NC(=S)NCc4ccccc4)ncc23)ccn1 [Example 94, trifluoroacetate]" outcome_measure=IC50 result="11.9 nM"
molecule="Cc1cc(-c2n[nH]c3cc(NC(=O)N[C@@H]4CN(C)C[C@H]4c4ccccc4C)ncc23)ccn1 [Example 215]" outcome_measure=IC50 result="0.537 nM"
molecule="Cc1cc(-c2n[nH]c3c(C)c(NC(=O)N[C@H](C)c4ccccc4)ncc23)ccn1 [Example 174]" outcome_measure=IC50 result="1.58 nM"
molecule="COC[C@@H](NC(=O)Nc1cc2[nH]nc(-c3ccnc(C)c3)c2cn1)c1ccccn1 [Example 416]" outcome_measure=IC50 result="0.78 nM"
molecule="Cc1cc(-c2n[nH]c3cc(NC(=O)NCC4(Nc5ccccc5)CCOCC4)ncc23)ccn1 [Example 398]" outcome_measure=IC50 result="1.13 nM"
molecule="C[C@@H](NC(=O)Nc1cc2[nH]nc(C3CC3)c2cn1)c1ccc(F)cc1 [Example 141]" outcome_measure=IC50 result="2.43 nM"
molecule="COc1ccnc([C@@H](C)NC(=O)Nc2cc3[nH]nc(-c4ccnc(C)c4)c3cn2)c1 [Example 231]" outcome_measure=IC50 result="1.53 nM"
molecule="C[C@@H](NC(=O)Nc1cc2[nH]nc(-c3ccnc(Cl)c3)c2cn1)c1ccc(F)c(Cl)c1 [Example 75]" outcome_measure=IC50 result="2.64 nM"
molecule="Cc1cc(-c2n[nH]c3cc(NC(=O)NCC4CNC4)ncc23)ccn1 [Example 586]" outcome_measure=IC50 result="1.3 nM"
molecule="C[C@@H](NC(=O)Nc1ncc2c(C#N)n[nH]c2c1F)c1ccccc1 [Example 540]" outcome_measure=IC50 result="946 nM"
